- Test system: P-gp (MDR1)
- protocol details: Bidirectional transport across MDCK-MDR1 cell monolayers
- Format: in vitro ADME, canine
- condition set: dog, MDCK-MDR1, pH 7.4, with GG918 0.5 µM
measurement type: Papp A→B at 120 min, 0.01 µM (×10⁻⁶ cm/s)
Answers are plain numbers, in ×10⁻⁶ cm/s.

Assign Papp A→B at 120 min, 0.01 µM to the following record: "C[C@H]1O[C@@H](O[C@H]2[C@@H](O)C[C@H](O[C@H]3[C@@H](O)C[C@H](O[C@H]4CC[C@@]5(C)[C@H](CC[C@@H]6[C@@H]5C[C@@H](O)[C@]5(C)[C@@H](C7=CC(=O)OC7)CC[C@]65O)C4)O[C@@H]3C)O[C@@H]2C)C[C@H](O)[C@@H]1O"
0.41
